Entries and their viability
# Test system: SB.mhdgc-1
# test-protocol: viability at highest tested concentration (MAXR) relative to DMSO; higher = less cytotoxic
# condition-context: SB.mhdgc-1 (hereditary c.1380delA CDH1 gastric cancer)

{"molecule": "C[C@]12CC[C@H]3[C@@H](C\\C=C/4C[C@@H](O)CC[C@]34C)[C@@H]1CCC2=O [Dehydroepiandrosterone] (top concentration 46.0829 µM)", "viability (%)": 32}
{"molecule": "COc1cc(N2CCC(N3CCN(C)CC3)CC2)ccc1Nc1ncnc(Nc2ccccc2[S+](=O)([O-])C(C)C)n1 [ASP-3026] (top concentration 46.0829 µM)", "viability (%)": 1.57}
{"molecule": "c1ccc(CNc2nc(N3CCOc4ccccc43)nc3c2CCCC3)cc1 (top concentration 46.0829 µM)", "viability (%)": 98.1}
{"molecule": "COc1cc(C)c(Sc2cnc(NC(=O)c3ccc(CNC(C)C(C)C)cc3)s2)cc1C(=O)N1CCN(C(C)=O)CC1 (stereo not given) [ITK inhibitor] (top concentration 46.0829 µM)", "viability (%)": 37.2}
{"molecule": "COCCOc1nc(-c2ccc(Cl)c(Cl)c2)n(-c2ccc(NC(=O)CCl)cc2)n1 [MI-2] (top concentration 46.0829 µM)", "viability (%)": 35.3}

----------
# Tested on: SB.mhdgc-1
# test-protocol: viability at highest tested concentration (MAXR) relative to DMSO; higher = less cytotoxic
# condition-context: SB.mhdgc-1 (hereditary c.1380delA CDH1 gastric cancer)

{"molecule": "O=C(Nc1c(Cl)cncc1Cl)c1ccc(OC(F)F)c(OCC2CC2)c1 [Roflumilast] (top concentration 46.0829 µM)", "unit-symbol": "%", "viability": 90.6}
{"molecule": "c1cc(N[C@@H]2CCNC2)nc(-c2cnc3ccc(-c4cn[nH]c4)cn23)c1 (top concentration 46.0829 µM)", "unit-symbol": "%", "viability": 71.4}
{"molecule": "CN[C@@H](C)[C@H]1[C@H](O)C[C@@]2(C)[C@@H]3CC[C@H]4C(C)(C)[C@@H](NC)CC[C@@]45C[C@@]35CC[C@]12C [Cyclovirobuxin D] (top concentration 46.0829 µM)", "unit-symbol": "%", "viability": 7.34}
{"molecule": "C[C@H]1[C@@H](C(=O)C[C@H]2O[C@@H]3O[C@]4(C)CC[C@H]5[C@H](C)CC[C@@H]([C@H]2C)[C@@]35OO4)O[C@@H]2O[C@]3(C)CC[C@H]4[C@H](C)CC[C@@H]1[C@@]24OO3 [BTM-2C-dimer ketone] (top concentration 46.0829 µM)", "unit-symbol": "%", "viability": 50.9}
{"molecule": "OC(c1cc(C(F)(F)F)nc2c(C(F)(F)F)cccc12)C1CCCCN1 (stereo unspecified) [Mefloquine] (top concentration 46.0829 µM)", "unit-symbol": "%", "viability": 4.02}
{"molecule": "N#Cc1c(N(CC(=O)[O-])CC(=O)[O-])sc(C(=O)[O-])c1CC(=O)[O-].O.O.O.O.O.O.O.[Sr+2].[Sr+2] [Ranelic acid distrontium salt] (top concentration 46.0829 µM)", "unit-symbol": "%", "viability": 92.2}
{"molecule": "Clc1ccc(C2(c3ccc(-c4cn[nH]c4)cc3)CCNCC2)cc1 [AT-7867] (top concentration 46.0829 µM)", "unit-symbol": "%", "viability": 3.91}
{"molecule": "CO/N=C(\\C(=O)N[C@@H]1C(=O)N2C(C(=O)OCOC(=O)C(C)(C)C)=C(/C=C\\c3scnc3C)CS[C@H]12)c1csc(N)n1 [Cefditoren pivoxil] (top concentration 46.0829 µM)", "unit-symbol": "%", "viability": 20.4}
{"molecule": "CCC(=O)NCC[C@@H]1CCc2ccc3c(c21)CCO3 [Ramelteon] (top concentration 46.0829 µM)", "unit-symbol": "%", "viability": 48}
{"molecule": "CN1CCN(C2=Nc3cc(Cl)ccc3Nc3ccccc32)CC1 [Clozapine] (top concentration 46.0829 µM)", "unit-symbol": "%", "viability": 96.2}
{"molecule": "O=C(c1ccc(F)cc1)N1CCC[C@H](c2nc(-c3ccc(F)cc3)no2)C1 (top concentration 46.0829 µM)", "unit-symbol": "%", "viability": 76.5}

----------
Listed below: viability values for each entry.
# Test system: SB.msgc-1
# test-protocol: viability at highest tested concentration (MAXR) relative to DMSO; higher = less cytotoxic
# condition-context: SB.msgc-1 (sporadic gastric cancer)
Where a name gives a salt, the structure may show the parent alone.

{"molecule": "CC(=O)O[C@@]12CO[C@@H]1C[C@H](O)[C@]3(C)[C@@H]2[C@H](OC(=O)C4=CC=CC=C4)[C@]5(O)C[C@H](O)/C(=C(/[C@@H](O)C3=O)C5(C)C)C [10-Deacetylbaccatin] (top concentration 46.0829 µM)", "viability, %": 46.1}
{"molecule": "NCC1(CC(=O)O)CCCCC1 [Gabapentin] (top concentration 46.0829 µM)", "viability, %": 109}
{"molecule": "C[C@@H](c1ncncc1F)[C@](O)(Cn1cncn1)c1ccc(F)cc1F [Voriconazole] (top concentration 46.0829 µM)", "viability, %": 89.1}
{"molecule": "O=C(NOCC1CC1)c1ccc(F)c(F)c1Nc1ccc(I)cc1Cl (top concentration 46.0829 µM)", "viability, %": 31.4}
{"molecule": "Cc1c(N)nc([C@H](CC(N)=O)NC[C@@H](N)C(N)=O)nc1C(=O)N[C@H](C(=O)N[C@@H](C)[C@H](O)[C@@H](C)C(=O)N[C@@H](C(=O)NCCc1nc(-c2nc(C(=O)NCCC[S+](C)C)cs2)cs1)[C@@H](C)O)C(O[C@H]1O[C@H](CO)[C@H](O)[C@@H](O)[C@H]1O[C@H]1O[C@H](CO)[C@@H](O)[C@H](OC(N)=O)[C@@H]1O)c1c[nH]cn1 (stereo not given in full) [Bleomycin sulfate] (top concentration 46.0829 µM)", "viability, %": 55.3}
{"molecule": "Nc1nc(Cl)nc2c1ncn2[C@@H]1O[C@H](CO)[C@@H](O)[C@@H]1F [Clofarabine] (top concentration 46.0829 µM)", "viability, %": 51.5}
{"molecule": "[NH2][Pt]([NH2])([Cl])[Cl] [Cisplatin] (top concentration 46.0829 µM)", "viability, %": 106}
{"molecule": "CC(C)NCC(O)c1ccc(O)c(O)c1 (stereo not given) [Isoprenaline hydrochloride] (top concentration 46.0829 µM)", "viability, %": 9.29}
{"molecule": "NC(=O)c1ncn([C@@H]2O[C@H](CO)[C@@H](O)[C@H]2O)c1O [Mizoribine] (top concentration 46.0829 µM)", "viability, %": 114}
{"molecule": "CC[C@H]1OC(=O)[C@H](C)[C@@H](O[C@H]2C[C@@](C)(OC)[C@@H](O)[C@H](C)O2)[C@H](C)[C@@H](O[C@@H]2O[C@H](C)C[C@H](N(C)C)[C@H]2O)[C@](C)(OC)C[C@@H](C)C(=O)[C@H](C)[C@@H](O)[C@]1(C)O [Clarithromycin] (top concentration 46.0829 µM)", "viability, %": 78.6}

----------
# System: SB.mhdgc-1
# test-protocol: area under the dose-response curve of % viability (trapezoidal, 11 doses) (% viability x log10 concentration); higher = less cytotoxic
# condition-context: SB.mhdgc-1 (hereditary c.1380delA CDH1 gastric cancer)
This listing pairs compounds with measured area under the dose-response curve.

{"compound": "COc1cc2c(cc1OC)CN(CCc1ccc(NC(=O)c3cccc4c(=O)c5cccc(OC)c5[nH]c34)cc1)CC2 [Elacridar] (top concentration 46.0829 µM)", "area under the dose-response curve": 404}
{"compound": "COc1ccc2c(c1)CC[C@@H](CN(C)CC(=O)O)[C@H]2c1ccccc1 (top concentration 46.0829 µM)", "area under the dose-response curve": 459}
{"compound": "CC(C)(O)C(=O)Nc1ccc([N+](=O)[O-])c(C(F)(F)F)c1 [Hydroxyflutamide] (top concentration 46.0829 µM)", "area under the dose-response curve": 503}
{"compound": "COc1cc(N2CCC(N3CCN(C)CC3)CC2)ccc1Nc1ncc(Cl)c(Nc2ccccc2[S+](=O)([O-])C(C)C)n1 [TAE-684] (top concentration 46.0829 µM)", "area under the dose-response curve": 221}
{"compound": "CC(C)(C)C(=O)Oc1ccc([S+](=O)([O-])Nc2ccccc2C(=O)NCC(=O)O)cc1 [Sivelestat] (top concentration 46.0829 µM)", "area under the dose-response curve": 563}
{"compound": "O=C(Nc1cc(Cl)cc2c1[nH]c1cnccc12)c1cccnc1 [PS-1145] (top concentration 46.0829 µM)", "area under the dose-response curve": 442}
{"compound": "O=C1CCC[C@@H]2[C@H]3CCCN4CCC[C@@H](CN12)[C@@H]34 [Matrine] (top concentration 46.0829 µM)", "area under the dose-response curve": 450}
{"compound": "O=C(c1ccc(F)cc1)N1CCC[C@H](c2nc(-c3ccc(F)cc3)no2)C1 (top concentration 46.0829 µM)", "area under the dose-response curve": 500}
{"compound": "CCN(CC)C(=O)C1=CC=C(C=C1)C/2=C/C3(CCNCC3)OC4=CC=CC(=C24)O [ADL-5859] (top concentration 46.0829 µM)", "area under the dose-response curve": 536}
{"compound": "COc1cccc(OC)c1-c1cc(C(=O)NC2(C(=O)O)C3CC4CC(C3)CC2C4)nn1-c1ccnc2cc(Cl)ccc12 (configuration not stated) [Meclinertant] (top concentration 46.0829 µM)", "area under the dose-response curve": 546}
{"compound": "CNC(=O)C1=CC=C(C)C(=C1)N2C(=C/C(=C(/Br)C2=O)OCC3=C(F)C=C(F)C=C3)\\C (top concentration 46.0829 µM)", "area under the dose-response curve": 496}
{"compound": "Cc1cc(O)c2c3c4c(cc(O)c13)C(C)(C)C(=O)c1c(O)cc(O)c(c1-4)C2=O [Resistomycin] (top concentration 46.0829 µM)", "area under the dose-response curve": 517}
